B1: NP_015628.1 (parent)
chain: EQRNSRWNTVLRAVKAKTHHLEP

variants of: B1; assay: protein stability index of a GFP-peptide fusion (GPS, HEK-293T) (PSI 1-6); higher = more stable; conditions: c terminus: native;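 also: lentivirally expressed fusion library, cells FACS-sorted into six equal-sized GFP/DsRed ratio bins, PSI computed from sequencing read fractions per bin weighted by bin number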
So basically: protein stability index at 3 or higher? That is 1 (yes). Lower than 3? That is 0 (no).

Field: example entries. Status: answers known.
> print(dat)
                         sequence    label
1  EQRNSRWNTVLRAVKGKTHHLEP [A16G]   0 (no)
2  EQRNSRWNTVLRAVKASTHHLEP [K17S]   0 (no)
3  EQRNSRWNTVLRAVKAKTKHLEP [H19K]  1 (yes)
4  EQRNSRWNTDLRAVKAKTHHLEP [V10D]  1 (yes)
5   EQRNSTWNTVLRAVKAKTHHLEP [R6T]   0 (no)

Q: Check if protein stability index >= 3 (inclusive). Item: EQRNSRWNTVLRAVKAKTHHHEP [L21H]
A: 1 (yes)

Q: Cool, now EQRTSRWNTVLRAVKAKTHHLEP [N4T]
A: 1 (yes)

Q: Subsequent entry: EQRNSRWNTVLRAVKAKTHHLYP [E22Y]
A: 1 (yes)

Q: Now try EQRNRRWNTVLRAVKAKTHHLEP [S5R] .
A: 0 (no)

Q: Try this variant too: EQRNSRWNTVSRAVKAKTHHLEP [L11S]
A: 1 (yes)

Q: Moving on to EQRNSRWNTVLRAVKAKTHWLEP [H20W]
A: 1 (yes)

Q: One more variant: EQRNSRWQTVLRAVKAKTHHLEP [N8Q]
A: 0 (no)

Measured values drawn from the supplement of paper PMC10567573 for this set.
